# protocol_text: chemical genetic growth profiling, strain panel (AID 1159580);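 also: tested at 20 µM; growth read once vehicle control cultures reached saturation at 30 °C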
# assay_conditions: S. cerevisiae deletion strains, growth OD, locus YPL241C, strain CIN2, stronger effect = lower value
The whole screen tested about 5,500 compounds, of which about 2,000 (36%) were called active. Not shown: some 18% with an inconclusive outcome. The list shows a part of the results.
Define the label as rule met when normalized growth is strictly less than 1 and as rule not met in all remaining cases.

>  <compound>
O=C1C=C(O)c2ccccc2C1=O

>  <answer_label>
rule met

$$$$
>  <compound>
O=C1c2ccccc2C(=O)c2ccccc21

>  <answer_label>
rule met

$$$$
>  <compound>
N=C(N)SCc1c(F)cccc1Cl

>  <answer_label>
rule not met

$$$$
>  <compound>
CCCc1ccc(-c2nc(-c3ccc(C)cc3)no2)cc1

>  <answer_label>
rule met

$$$$
>  <compound>
O=C(NNC(=O)c1ccc[nH]1)Nc1cc(Cl)cc(Cl)c1

>  <answer_label>
rule met

$$$$
